Below are pIC50 measurements against Polyamine deacetylase HDAC10 (Homo sapiens) drawn from the literature.
Sequence (Q969S8 whole entry): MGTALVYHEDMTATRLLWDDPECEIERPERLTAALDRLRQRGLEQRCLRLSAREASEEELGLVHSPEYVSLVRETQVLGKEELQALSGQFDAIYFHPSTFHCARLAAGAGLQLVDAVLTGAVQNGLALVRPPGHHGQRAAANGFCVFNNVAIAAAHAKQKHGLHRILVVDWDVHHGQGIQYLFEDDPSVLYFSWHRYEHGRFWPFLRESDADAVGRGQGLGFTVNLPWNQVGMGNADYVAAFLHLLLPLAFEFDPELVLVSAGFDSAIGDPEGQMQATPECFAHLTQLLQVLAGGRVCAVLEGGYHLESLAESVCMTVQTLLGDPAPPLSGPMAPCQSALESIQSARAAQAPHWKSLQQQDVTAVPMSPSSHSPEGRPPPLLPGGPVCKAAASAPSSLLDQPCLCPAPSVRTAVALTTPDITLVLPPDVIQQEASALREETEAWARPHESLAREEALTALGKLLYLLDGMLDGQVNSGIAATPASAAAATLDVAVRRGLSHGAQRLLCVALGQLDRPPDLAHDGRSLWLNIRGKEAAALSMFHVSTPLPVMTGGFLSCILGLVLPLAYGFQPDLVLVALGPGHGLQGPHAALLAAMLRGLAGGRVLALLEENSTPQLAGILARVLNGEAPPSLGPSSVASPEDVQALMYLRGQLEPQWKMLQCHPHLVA
// scale note: pIC50 = -log10(conc_M); give the bare number

Take a look at these entries with their results.
Cc1cc(-c2nc3sc4c(c3c(=O)[nH]2)CCN(C)C4)cc(C)c1OCCCCCC(=O)NO = 6.03
O=C(CCCCc1cc(C(=O)NO)no1)Nc1nc(-c2ccccc2)cs1 = 6.60
O=C(CCCCCCC(=O)Nc1cccc(-c2cn(-c3ccc(F)cc3)nn2)c1)NO = 7.48

Request: Annotate the compound CN(C)c1ccc(C(=O)NCCCNC(=O)CS)cc1 with its measured pIC50.
Response: 5.06

Request: Annotate the compound COc1ccc(CN2CCC(Nc3nc(Nc4ccc(NC(=O)CCCCCCC(=O)NO)cc4)nc4cc(OC)c(OC)cc34)CC2)cc1 with its measured pIC50.
Response: 5.57

Request: Annotate the compound CNc1ccc(-c2nc(N3CCOCC3)c3sc(CN(C)c4ncc(C(=O)NO)cn4)cc3n2)cn1 with its measured pIC50.
Response: 9.05
